Sourced from paper PMC7819943

biological target: OsWRKY34 (Oryza sativa, UniProt Q0JBA9 1-250); assay: protein-binding microarray (RPBM); PBS, 2% BSA, 51.3 ng/ul salmon testes DNA, 50 uM zinc acetate, 200 nM TF, 25 C, 1 h; high values mean tight binding; details: protein: recombinant; tags: N-terminal polyhistidine and DsRed monomer fusion (pET32a); label: CyDye5-dUTP incorporated in the synthesized complementary strand; 3' TTTTT single-stranded linker to array surface; dsDNA, one strand shown
Sequence (Q0JBA9 entry or part of it): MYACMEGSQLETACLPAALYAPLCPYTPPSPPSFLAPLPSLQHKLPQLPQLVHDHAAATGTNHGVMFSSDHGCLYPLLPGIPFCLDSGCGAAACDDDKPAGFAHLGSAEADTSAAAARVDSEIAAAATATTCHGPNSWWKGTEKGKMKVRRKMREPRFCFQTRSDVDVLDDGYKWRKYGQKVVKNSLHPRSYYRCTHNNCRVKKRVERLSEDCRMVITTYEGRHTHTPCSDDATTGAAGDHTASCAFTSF
Whole data set: some 68,000 sequences, median “fluorescence intensity (a.u.)” near 9,100, cut for the highest 2% near 16,000. What follows is part of a selection rich in the highest values, with near analogues and random picks from the rest.
Measurement Name: binding signal

Guide cases for binding signal, answers given:
{"Sequence Content": "GTTTGAGGGTTTTTTGTTGGTTTAGAATCATCTTTTTCTTCGGAGTCACCTAGTGCAG", "binding signal": "9210 fluorescence intensity (a.u.)"}
{"Sequence Content": "TGTTTTTGCTTCTCTTCCTTTTGCTGGAGCTTATTGGTTTCGGAGTCACCTAGTGCAG", "binding signal": "10100 fluorescence intensity (a.u.)"}
{"Sequence Content": "GGGGTATGAAATGTTTTTTTTTTCCTTTACGTTTCTTTTTCGGAGTCACCTAGTGCAG", "binding signal": "15400 fluorescence intensity (a.u.)"}

Determine its reported binding signal: `CCAGTGAATTACATTTTTGCCCGATCCCGTCGCGAACTCCCGGAGTCACCTAGTGCAG`
8750 fluorescence intensity (a.u.)

* * *

target: OsWRKY34 (Oryza sativa, UniProt Q0JBA9 1-250); assay: protein-binding microarray (RPBM); PBS, 2% BSA, 51.3 ng/ul salmon testes DNA, 50 uM zinc acetate, 200 nM TF, 25 C, 1 h; high values mean tight binding; details: protein: recombinant; tags: N-terminal polyhistidine and DsRed monomer fusion (pET32a); label: CyDye5-dUTP incorporated in the synthesized complementary strand; 3' TTTTT single-stranded linker to array surface; dsDNA, one strand shown
In all, about 68,000 sequences were measured (“fluorescence intensity (a.u.)”: median about 9,100, highest 2% from about 16,000 on). Only a selection was taken, and the highest values are over-represented in it overall.
The entries below are paired with their reported binding signal.

{"Sequence Content": "TGTTTTGGACTTTTTGGTCAACGGCCCATCAAAGCAAGCCCGGAGTCACCTAGTGCAG", "binding signal": "13000 fluorescence intensity (a.u.)"}

Name the recorded binding signal of the sequence listed here: `CTCTCGGTCGTCGGCCTCGTCCTCCGGGCCGGCATTCATCCGGAGTCACCTAGTGCAG`
8560 fluorescence intensity (a.u.)

Complete the entry with binding signal for `GGATACGGCACCTTTGCGAGCTGCGTCGACCGCTCCGCCGCGGAGTCACCTAGTGCAG`
9650 fluorescence intensity (a.u.)

Determine from records and report binding signal for `AACCCTCATCTACTTCTGGCCCTCTAAGAGTTCTCCACTACGGAGTCACCTAGTGCAG`
8400 fluorescence intensity (a.u.)

Specify reported binding signal for the sequence shown: `ATTCCTTGTTGGTAACTGTACCCAGGGGCGGGTCCAACGTCGGAGTCACCTAGTGCAG`
8270 fluorescence intensity (a.u.)

Give a short answer stating reported binding signal for `AGTTGTGGAGCTGTCTAAACCCATCTCTACTTCTCTACTTCGGAGTCACCTAGTGCAG` .
8200 fluorescence intensity (a.u.)

* * *

target: OsWRKY34 (Oryza sativa, UniProt Q0JBA9 1-250); experiment: protein-binding microarray (RPBM); PBS, 2% BSA, 51.3 ng/ul salmon testes DNA, 50 uM zinc acetate, 200 nM TF, 25 C, 1 h; high values mean tight binding; details: protein: recombinant; tags: N-terminal polyhistidine and DsRed monomer fusion (pET32a); label: CyDye5-dUTP incorporated in the synthesized complementary strand; 3' TTTTT single-stranded linker to array surface; dsDNA, one strand shown
Whole data set: some 68,000 sequences, median “fluorescence intensity (a.u.)” near 9,100, cut for the highest 2% near 16,000. This is one part of a sample in which the highest values are shown more often than they occur.
Known binding signal of a selection of sequences

Below are worked cases with known answers.
{"Sequence Content": "CACTGCTTCTCACCCAACTCGCGCGCGCCATTCCTTGCCTCGGAGTCACCTAGTGCAG", "binding signal": "11600 fluorescence intensity (a.u.)"}
{"Sequence Content": "GGATGCTCTTGTGTTCTTGTTGTTGATTTGTATTGTGGATCGGAGTCACCTAGTGCAG", "binding signal": "8240 fluorescence intensity (a.u.)"}

For the next question, use this sequence.
Quote binding signal reported for `ATATACAGATTTCGATCGGCGACGTTAGTGATCAGCTGGGCGGAGTCACCTAGTGCAG` please.
35200 fluorescence intensity (a.u.)

* * *

In this section we review reported binding signal values for a set of sequences.
biological target: OsWRKY34 (Oryza sativa, UniProt Q0JBA9 1-250); assay: protein-binding microarray (RPBM); PBS, 2% BSA, 51.3 ng/ul salmon testes DNA, 50 uM zinc acetate, 200 nM TF, 25 C, 1 h; high values mean tight binding; settings: protein: recombinant; tags: N-terminal polyhistidine and DsRed monomer fusion (pET32a); label: CyDye5-dUTP incorporated in the synthesized complementary strand; 3' TTTTT single-stranded linker to array surface; dsDNA, one strand shown
Whole data set: some 68,000 sequences, median “fluorescence intensity (a.u.)” near 9,100, cut for the highest 2% near 16,000. The sample holds the highest values, similar sequences and a random draw of the others, so the mix is not that of the screen.

Check out these entries, answers already filled in.
{"Sequence Content": "AAGAGGGTGGGTTGTTGGGGAGAGGGGAGGGAGGAGGATTCGGAGTCACCTAGTGCAG", "binding signal": "20100 fluorescence intensity (a.u.)"}
{"Sequence Content": "TTGGTCTCTCCTCGTCGCTGGGGTTCTTTGTTCTTGTAGTCGGAGTCACCTAGTGCAG", "binding signal": "10000 fluorescence intensity (a.u.)"}
{"Sequence Content": "AAATCCCCTTGTTACCGCGCGTTGTTTGGTTGTACCGCGCCGGAGTCACCTAGTGCAG", "binding signal": "16600 fluorescence intensity (a.u.)"}
{"Sequence Content": "TATTTGATCCCGTTTTTTAAAATCGAGCTTACCGTTTGACCGGAGTCACCTAGTGCAG", "binding signal": "10500 fluorescence intensity (a.u.)"}
{"Sequence Content": "GCTTCGTTGGCTCCGTGAAACTGTCTCTCTCTCCCAACTCCGGAGTCACCTAGTGCAG", "binding signal": "8030 fluorescence intensity (a.u.)"}

State, in one line, measured binding signal of `ATCACCAGTTGCCATTCTGTCACCTCAACTTAGAACATACCGGAGTCACCTAGTGCAG`
8290 fluorescence intensity (a.u.)

Return reported binding signal. Input sequence: `TGAGAAGCACCGCTCTCTCCTGCACCCGTCTCACGTGCACCGGAGTCACCTAGTGCAG`
8300 fluorescence intensity (a.u.)

Return reported binding signal. Input sequence: `TTCGCGCGCTGCTCGCTCGCTTGGTTGGTTGGTTGATTGCCGGAGTCACCTAGTGCAG`
15200 fluorescence intensity (a.u.)

* * *

target: OsWRKY34 (Oryza sativa, UniProt Q0JBA9 1-250); test: protein-binding microarray (RPBM); PBS, 2% BSA, 51.3 ng/ul salmon testes DNA, 50 uM zinc acetate, 200 nM TF, 25 C, 1 h; high values mean tight binding; conditions: protein: recombinant; tags: N-terminal polyhistidine and DsRed monomer fusion (pET32a); label: CyDye5-dUTP incorporated in the synthesized complementary strand; 3' TTTTT single-stranded linker to array surface; dsDNA, one strand shown
In all, about 68,000 sequences were measured (“fluorescence intensity (a.u.)”: median about 9,100, highest 2% from about 16,000 on). The full list was thinned out, with the highest values kept by preference.
Measurement Name: binding signal

Look over these answered cases.
{"Sequence Content": "TGTGCCGTGACTCGATGTGCTCCTCCATCTCTTGCTGCAACGGAGTCACCTAGTGCAG", "Target Under Test": "OsWRKY34 (Oryza sativa, UniProt Q0JBA9 1-250)", "binding signal": "8170 fluorescence intensity (a.u.)"}
{"Sequence Content": "GTCACTCCTACTCCCGCCACCACCGGCCCAATGGCGCCCCCGGAGTCACCTAGTGCAG", "Target Under Test": "OsWRKY34 (Oryza sativa, UniProt Q0JBA9 1-250)", "binding signal": "9660 fluorescence intensity (a.u.)"}
{"Sequence Content": "TTATGCCAGCCATTTCACTTTTTCCCACGTTTTGTCATTTCGGAGTCACCTAGTGCAG", "Target Under Test": "OsWRKY34 (Oryza sativa, UniProt Q0JBA9 1-250)", "binding signal": "18900 fluorescence intensity (a.u.)"}

Look up and report binding signal, with OsWRKY34 (Oryza sativa, UniProt Q0JBA9 1-250) as system, for `TGGTTCTTTGATCTTTTAATTTTGTTTGTTTGTTTGTTTTCGGAGTCACCTAGTGCAG`
12800 fluorescence intensity (a.u.)

Give measured binding signal for `GCAGCTGATCGATCTGGTTTCTGCTTTGCTGCAACTCACTCGGAGTCACCTAGTGCAG` (OsWRKY34 (Oryza sativa, UniProt Q0JBA9 1-250)).
8870 fluorescence intensity (a.u.)

Provide binding signal, system OsWRKY34 (Oryza sativa, UniProt Q0JBA9 1-250), entry `CGAGGAGCGGGGTGGGGTCGGAGGCGGGGAGGGAGGACGCCGGAGTCACCTAGTGCAG`
16100 fluorescence intensity (a.u.)

GET binding signal where system = OsWRKY34 (Oryza sativa, UniProt Q0JBA9 1-250) and item = `CAATGGCTTACGACGAGACGACTCACCTTTGAATTCCACGCGGAGTCACCTAGTGCAG`
9460 fluorescence intensity (a.u.)

Given `AAAGTTTTTTGTCGTTGTTTGTTTTCCAGTATTTGCTTTTCGGAGTCACCTAGTGCAG` , report its binding signal on OsWRKY34 (Oryza sativa, UniProt Q0JBA9 1-250).
18000 fluorescence intensity (a.u.)

Fetch value of binding signal on OsWRKY34 (Oryza sativa, UniProt Q0JBA9 1-250) for `TATATATTGTTTTTTTTTACGTTGTTGGTTCCGGATGTGACGGAGTCACCTAGTGCAG` .
9930 fluorescence intensity (a.u.)

Give measured binding signal for `CGCTTTTGCACAGTATTTTTATTTGCAGAGTTATGTTTGTCGGAGTCACCTAGTGCAG` (OsWRKY34 (Oryza sativa, UniProt Q0JBA9 1-250)).
8090 fluorescence intensity (a.u.)
